Values compiled from ChEMBL document CHEMBL1140082.

Target: Mitogen-activated protein kinase 9 (Homo sapiens)
Sequence (P45984 whole entry): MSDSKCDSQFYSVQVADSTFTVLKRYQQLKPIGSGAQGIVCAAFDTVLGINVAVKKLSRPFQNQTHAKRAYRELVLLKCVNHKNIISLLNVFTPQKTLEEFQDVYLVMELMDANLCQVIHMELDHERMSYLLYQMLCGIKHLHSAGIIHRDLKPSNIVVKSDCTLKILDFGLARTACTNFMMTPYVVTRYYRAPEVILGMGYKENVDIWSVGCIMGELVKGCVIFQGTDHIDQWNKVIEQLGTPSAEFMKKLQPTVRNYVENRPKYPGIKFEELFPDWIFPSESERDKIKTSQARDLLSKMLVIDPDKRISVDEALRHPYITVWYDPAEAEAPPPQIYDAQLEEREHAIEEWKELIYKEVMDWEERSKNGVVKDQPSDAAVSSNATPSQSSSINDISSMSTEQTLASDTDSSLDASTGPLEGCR
Procedure summary: Inhibition of JNK2
Assay metric: IC50

Examples from the recorded data:
INSERT INTO assay_data (smi, assay_metric, reported_value) VALUES
  ('COc1cc2c(Oc3ccc(-c4cnc(Nc5ccc(F)cc5)n(C)c4=O)cc3F)ccnc2cc1OCCCN1CCOCC1', 'IC50', '> 100 µM'),
  ('COc1cc2c(Oc3ccc(-c4cnc(Nc5ccc(F)cc5)n(C)c4=O)nc3)ccnc2cc1OCCCN1CCOCC1', 'IC50', '4.7 µM');

We now examine a further compound.
Give the reported IC50 for this compound. COc1cc2c(Oc3ccc(-c4cnc(Cc5ccccc5)n(C)c4=O)cc3F)ccnc2cc1OCCCN1CCOCC1
> 100 µM
